Cited source for all entries: ChEMBL document CHEMBL4422632

experiment: Cytotoxicity against mouse RAW264.7 cells assessed as cell viability at 25 uM after 72 hrs by neutral red uptake-based assay relative to control
particulars: read-out: Activity
endpoint.name: viability at 72 h, 25 µM (%)

sample.smiles | unit.spec | result
O=c1[nH]c(CNC(CO)CO)c(I)c(=O)[nH]1 | % | 105

###

experiment: Cytotoxicity against human HaCaT cells assessed as cell viability at 25 uM after 72 hrs by MTT assay relative to control
Type: cell-based
particulars: read-out: Activity
endpoint.name: viability at 72 h, 25 µM (%)

sample.smiles | result
O=c1[nH]c(CNC(CO)CO)c(I)c(=O)[nH]1 | 105

###

target.of.assay: Cytochrome P450 2D6 (Homo sapiens, UniProt P10635)
Sequence (P10635 whole entry): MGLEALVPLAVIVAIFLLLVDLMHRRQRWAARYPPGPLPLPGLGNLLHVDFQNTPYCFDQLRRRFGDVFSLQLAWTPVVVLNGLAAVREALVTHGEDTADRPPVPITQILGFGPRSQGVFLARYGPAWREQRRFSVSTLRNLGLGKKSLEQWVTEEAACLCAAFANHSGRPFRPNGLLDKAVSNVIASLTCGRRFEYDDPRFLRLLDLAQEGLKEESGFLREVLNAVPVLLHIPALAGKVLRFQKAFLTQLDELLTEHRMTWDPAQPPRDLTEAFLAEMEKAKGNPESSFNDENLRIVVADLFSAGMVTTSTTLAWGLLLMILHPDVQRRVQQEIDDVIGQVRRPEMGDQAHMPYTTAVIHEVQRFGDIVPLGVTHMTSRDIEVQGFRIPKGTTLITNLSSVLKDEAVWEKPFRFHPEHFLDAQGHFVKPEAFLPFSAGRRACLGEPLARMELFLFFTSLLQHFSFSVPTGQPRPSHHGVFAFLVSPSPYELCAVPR
pIC50: −log10 of the molar value.

sample.smiles | pIC50
O=c1[nH]c(CNC(CO)CO)c(I)c(=O)[nH]1 | < 4.00

###

experiment: Cytotoxicity against African green monkey Vero cells assessed as cell viability at 250 uM after 72 hrs by MTT assay relative to control
Assay type: cell-based
particulars: chlorocebus sabaeus, read-out: Activity
endpoint.name: viability at 72 h, 250 µM (%)

sample.smiles | endpoint.name | result
O=c1[nH]c(CNC(CO)CO)c(I)c(=O)[nH]1 | viability at 72 h, 250 µM | 95

###

experiment: Cytotoxicity against human HaCaT cells assessed as cell viability at 250 uM after 72 hrs by neutral red uptake-based assay relative to control
particulars: read-out: Activity
endpoint.name: viability at 72 h, 250 µM

sample.smiles | result
O=c1[nH]c(CNC(CO)CO)c(I)c(=O)[nH]1 | 100%

###

experiment: Cytotoxicity against African green monkey Vero cells assessed as cell viability at 100 uM after 72 hrs by MTT assay relative to control
Assay type: cell-based
particulars: chlorocebus sabaeus, read-out: Activity

sample.smiles | viability at 72 h, 100 µM, %
O=c1[nH]c(CNC(CO)CO)c(I)c(=O)[nH]1 | 96

###

experiment: Cytotoxicity against human HepG2 cells assessed as cell viability at 250 uM after 72 hrs by MTT assay relative to control
Format: cell-based
particulars: read-out: Activity
endpoint.name: viability at 72 h, 250 µM (%)

sample.smiles | result
O=c1[nH]c(CNC(CO)CO)c(I)c(=O)[nH]1 | 100

###

target.of.assay: Cytochrome P450 3A4 (Homo sapiens)
Sequence (P08684 whole entry): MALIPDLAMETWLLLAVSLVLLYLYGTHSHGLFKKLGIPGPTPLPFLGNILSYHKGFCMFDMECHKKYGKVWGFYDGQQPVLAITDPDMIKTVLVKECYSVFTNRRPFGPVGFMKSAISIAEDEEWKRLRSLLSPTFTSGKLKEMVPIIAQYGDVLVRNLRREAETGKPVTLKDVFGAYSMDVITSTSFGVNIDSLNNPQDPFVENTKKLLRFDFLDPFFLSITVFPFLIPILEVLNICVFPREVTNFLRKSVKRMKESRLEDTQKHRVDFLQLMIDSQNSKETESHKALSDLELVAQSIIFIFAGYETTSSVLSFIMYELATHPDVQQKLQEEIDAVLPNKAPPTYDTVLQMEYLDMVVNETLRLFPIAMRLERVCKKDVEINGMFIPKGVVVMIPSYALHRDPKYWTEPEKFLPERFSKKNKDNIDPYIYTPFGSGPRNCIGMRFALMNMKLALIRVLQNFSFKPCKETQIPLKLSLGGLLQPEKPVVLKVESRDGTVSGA
experiment: Inhibition of CYP3A4 in human liver microsomes by HPLC-MS/MS analysis
Assay type: ADME

sample.smiles | IC50
O=c1[nH]c(CNC(CO)CO)c(I)c(=O)[nH]1 | > 100 µM

###

experiment: Cytotoxicity against human HepG2 cells assessed as cell viability at 25 uM after 72 hrs by neutral red uptake-based assay relative to control
particulars: read-out: Activity
endpoint.name: viability at 72 h, 25 µM (%)

sample.smiles | result
O=c1[nH]c(CNC(CO)CO)c(I)c(=O)[nH]1 | 102

###

experiment: Cytotoxicity against African green monkey Vero cells assessed as cell viability at 50 uM after 72 hrs by neutral red uptake-based assay relative to control
particulars: chlorocebus sabaeus, read-out: Activity
endpoint.name: viability at 72 h, 50 µM

sample.smiles | result
O=c1[nH]c(CNC(CO)CO)c(I)c(=O)[nH]1 | 112%

###

experiment: Cytotoxicity against human HaCaT cells assessed as cell viability at 1000 uM after 72 hrs by MTT assay relative to control
Assay type: cell-based
particulars: read-out: Activity
endpoint.name: viability at 72 h, 1000 µM (%)

sample.smiles | result
O=c1[nH]c(CNC(CO)CO)c(I)c(=O)[nH]1 | 81

###

experiment: Cytotoxicity against mouse RAW264.7 cells assessed as cell viability at 50 uM after 72 hrs by neutral red uptake-based assay relative to control
particulars: read-out: Activity

sample.smiles | unit.spec | viability at 72 h, 50 µM
O=c1[nH]c(CNC(CO)CO)c(I)c(=O)[nH]1 | % | 102

###

experiment: Cytotoxicity against African green monkey Vero cells assessed as cell viability at 100 uM after 72 hrs by neutral red uptake-based assay relative to control
particulars: chlorocebus sabaeus, read-out: Activity
endpoint.name: viability at 72 h, 100 µM

sample.smiles | result
O=c1[nH]c(CNC(CO)CO)c(I)c(=O)[nH]1 | 108%

###

experiment: Half life in human liver S9 fraction at 2 uM up to 30 mins in presence of NADPH by HPLC-MS/MS analysis
Assay type: ADME, subcellular
endpoint.name: half-life at 2 µM (min)

sample.smiles | endpoint.name | result
O=c1[nH]c(CNC(CO)CO)c(I)c(=O)[nH]1 | half-life at 2 µM | 28.1

###

experiment: Cytotoxicity against mouse RAW264.7 cells assessed as cell viability at 250 uM after 72 hrs by neutral red uptake-based assay relative to control
particulars: read-out: Activity

sample.smiles | viability at 72 h, 250 µM
O=c1[nH]c(CNC(CO)CO)c(I)c(=O)[nH]1 | 85%

###

experiment: AUC (0 to infinity) in CF1 mouse at 50 mg/kg, ip by non-compartmental analysis
Assay type: ADME, organism-based
Set-up: dose 50 mg/kg, time infinity, route intraperitoneal
particulars: in vivo
endpoint.name: AUC (ng·h/mL)

sample.smiles | endpoint.name | unit.spec | result
O=c1[nH]c(CNC(CO)CO)c(I)c(=O)[nH]1 | AUC | ng·h/mL | 17400

###

experiment: Cytotoxicity against human U87MG cells assessed as cell viability at 25 uM after 72 hrs by MTT assay relative to control
Assay type: cell-based, U-87MG ATCC
particulars: read-out: Activity
endpoint.name: viability at 72 h, 25 µM (%)

sample.smiles | unit.spec | result
O=c1[nH]c(CNC(CO)CO)c(I)c(=O)[nH]1 | % | 101

###

target.of.assay: Cytochrome P450 2C19 (Homo sapiens, UniProt P33261)
Sequence (P33261 whole entry): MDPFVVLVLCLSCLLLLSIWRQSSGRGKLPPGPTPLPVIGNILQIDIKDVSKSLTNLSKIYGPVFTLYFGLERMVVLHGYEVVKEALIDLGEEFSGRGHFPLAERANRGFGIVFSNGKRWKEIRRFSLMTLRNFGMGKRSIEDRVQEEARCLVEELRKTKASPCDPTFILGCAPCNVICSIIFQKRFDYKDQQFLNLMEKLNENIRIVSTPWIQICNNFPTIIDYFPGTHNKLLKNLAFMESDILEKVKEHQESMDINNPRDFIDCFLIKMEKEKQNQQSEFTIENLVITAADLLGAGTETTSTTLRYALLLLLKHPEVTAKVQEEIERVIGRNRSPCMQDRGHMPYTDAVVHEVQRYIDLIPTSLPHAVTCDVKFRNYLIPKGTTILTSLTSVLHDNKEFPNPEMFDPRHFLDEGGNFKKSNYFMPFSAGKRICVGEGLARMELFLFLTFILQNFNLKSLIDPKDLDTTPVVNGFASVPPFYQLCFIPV
endpoint.name: IC50

sample.smiles | result
O=c1[nH]c(CNC(CO)CO)c(I)c(=O)[nH]1 | > 100 µM

###

experiment: Cytotoxicity against human U87MG cells assessed as cell viability at 25 uM after 72 hrs by neutral red uptake-based assay relative to control
Design: species or system U-87MG ATCC
particulars: read-out: Activity

sample.smiles | unit.spec | viability at 72 h, 25 µM
O=c1[nH]c(CNC(CO)CO)c(I)c(=O)[nH]1 | % | 99

###

experiment: Cytotoxicity against mouse RAW264.7 cells assessed as cell viability at 100 uM after 72 hrs by neutral red uptake-based assay relative to control
particulars: read-out: Activity
endpoint.name: viability at 72 h, 100 µM

sample.smiles | result
O=c1[nH]c(CNC(CO)CO)c(I)c(=O)[nH]1 | 97%

###

experiment: Intrinsic clearance in human liver S9 fraction at 2 uM up to 30 mins in presence of NADPH by HPLC-MS/MS analysis
Assay type: ADME, subcellular
particulars: read-out: CLH
endpoint.name: CLint scaled at 2 µM (mL/min/kg)

sample.smiles | endpoint.name | unit.spec | result
O=c1[nH]c(CNC(CO)CO)c(I)c(=O)[nH]1 | CLint scaled at 2 µM | mL/min/kg | 13

###

experiment: Cytotoxicity against human U87MG cells assessed as cell viability at 500 uM after 72 hrs by neutral red uptake-based assay relative to control
Design: species or system U-87MG ATCC
particulars: read-out: Activity

sample.smiles | viability at 72 h, 500 µM
O=c1[nH]c(CNC(CO)CO)c(I)c(=O)[nH]1 | 93%

###

experiment: Cytotoxicity against mouse RAW264.7 cells assessed as cell viability at 1000 uM after 72 hrs by neutral red uptake-based assay relative to control
particulars: read-out: Activity

sample.smiles | unit.spec | viability at 72 h, 1000 µM
O=c1[nH]c(CNC(CO)CO)c(I)c(=O)[nH]1 | % | 48

###

experiment: Cytotoxicity against African green monkey Vero cells assessed as cell viability at 25 uM after 72 hrs by neutral red uptake-based assay relative to control
particulars: chlorocebus sabaeus, read-out: Activity

sample.smiles | viability at 72 h, 25 µM
O=c1[nH]c(CNC(CO)CO)c(I)c(=O)[nH]1 | 108%

###

experiment: Cytotoxicity against mouse RAW264.7 cells assessed as cell viability at 500 uM after 72 hrs by neutral red uptake-based assay relative to control
particulars: read-out: Activity
endpoint.name: viability at 72 h, 500 µM (%)

sample.smiles | result
O=c1[nH]c(CNC(CO)CO)c(I)c(=O)[nH]1 | 82

###

experiment: Cytotoxicity against human U87MG cells assessed as cell viability at 100 uM after 72 hrs by MTT assay relative to control
Type: cell-based, U-87MG ATCC
particulars: read-out: Activity
endpoint.name: viability at 72 h, 100 µM (%)

sample.smiles | result
O=c1[nH]c(CNC(CO)CO)c(I)c(=O)[nH]1 | 96

###

experiment: Cytotoxicity against human U87MG cells assessed as cell viability at 50 uM after 72 hrs by MTT assay relative to control
Assay type: cell-based, U-87MG ATCC
particulars: read-out: Activity

sample.smiles | viability at 72 h, 50 µM / %
O=c1[nH]c(CNC(CO)CO)c(I)c(=O)[nH]1 | 97

###

target.of.assay: Cytochrome P450 2E1 (Homo sapiens, UniProt P05181)
Sequence (P05181 whole entry): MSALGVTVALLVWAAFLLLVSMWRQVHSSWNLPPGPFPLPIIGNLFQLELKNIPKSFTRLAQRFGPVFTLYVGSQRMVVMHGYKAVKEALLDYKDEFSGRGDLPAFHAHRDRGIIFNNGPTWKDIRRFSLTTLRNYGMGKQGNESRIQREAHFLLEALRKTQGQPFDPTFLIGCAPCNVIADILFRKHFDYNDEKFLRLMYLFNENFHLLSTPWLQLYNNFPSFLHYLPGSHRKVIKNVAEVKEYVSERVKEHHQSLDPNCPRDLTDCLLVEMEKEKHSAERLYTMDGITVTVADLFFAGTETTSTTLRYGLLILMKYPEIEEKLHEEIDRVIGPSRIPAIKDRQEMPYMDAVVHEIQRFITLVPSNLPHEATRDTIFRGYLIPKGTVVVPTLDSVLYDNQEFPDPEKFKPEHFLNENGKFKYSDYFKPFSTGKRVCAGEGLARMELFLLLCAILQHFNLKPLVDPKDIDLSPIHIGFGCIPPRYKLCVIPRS

sample.smiles | IC50
O=c1[nH]c(CNC(CO)CO)c(I)c(=O)[nH]1 | > 100 µM
